Biological target: T1, CD70 (UniProt P32970 39-193, limits assumed)
T1 construct: also called CD70 (100 nM)
T1 sequence (looked up): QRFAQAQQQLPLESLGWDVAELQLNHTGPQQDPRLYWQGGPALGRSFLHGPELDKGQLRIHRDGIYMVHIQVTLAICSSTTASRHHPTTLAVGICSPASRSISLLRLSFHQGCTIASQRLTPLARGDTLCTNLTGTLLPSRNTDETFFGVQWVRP
Test: Octet (BLI); hybridoma mAb, CD70 at 100 nM
Please mark MET if the recorded kon is equal to or greater than 100000 M⁻¹ s⁻¹, and NOT MET if it falls below.

{"Binder": "13G6 (antibody, V domains shown, IgG in hybridoma supernatant; also called 13G6E8) VH: QVQLVESGGGVVQPGKSLRLSCAASGFTFSNYGIHWVRQAPGKGLEWVAVIWYDGSYKYYADSVKGRFTISRDNSKNTLYLQMNSLRAEDTALYYCARDTVDTYGSFDYWGQGTLVTVSS VL: DIQLTQSPSFLSASVGDRVTITGRASQGISSYLAWYQQKPGKAPNLLIYAASTLQSGVPSRFSGSGSGTEFTLTISSLQPEDFATYYCQQHNRYPITFGQGTRLEIK", "Discrete label": "NOT MET"}
{"Binder": "15F8 (15F8D8) (antibody, V domains shown, IgG in hybridoma supernatant; also called 15F8D9) VH: EVQLVESGGGVVRPGGSLRLSCAASGFTFDDYGVSWVRQAPGRGLEWVSGINWNGGSTAYADSVKGRFTISRDSAKNSLYLQMDSLRAEDTALYYCAREEGSYYVWYFDIWGRGTLVTVSS VL: DIQMTQSPSSLSASVGDRVTITCRPSQSISNYLNWYQQKPGKAPKVLIYASFILQSGVPSRFGGSGSGTDFTLTISSLQPEDFATYYCQQSYSNPFTFGPGTKVDIK", "Discrete label": "NOT MET"}
{"Binder": "1E3 (1E3D9) (antibody, V domains shown, IgG in hybridoma supernatant) VH: QLQLQESGPGLVKPSETLSLTCTVSGASITSTSYYWNWIRQPPGKGLEWIGRISYSGSTYYNPSLKSRVTISVDTSKNQFSLKLSSVTATDTAVYYCARQIRYNWNPDTFDIWGQGTMVTVSS VL: EIVMTQSPATLSVSPGERATLSCRASQSLNSNLAWYQQKPAQAPRLLIYGASTRATGIPARFSGSGSGTEFTLTISSLQSEDFAVYYCQQYDNWPLTFGGGTKVEIK", "Discrete label": "MET"}
{"Binder": "4G7 (4G7E8) (antibody, V domains shown, IgG in hybridoma supernatant; The variable domains exist only inside scFv entries 1213/1214) VH: QVQLVESGGGVVQPGRSLRLSCAASGFTFSSYGLHWVRQAPGKGLDWVAVIWYDGSNKYYVDSVKGRFTISRDNSMNTLFLQMNSLRAEDTAVYYCARDEAAAAGAFDIWGQGTMVTVSS VL: DIQLTQSPSFLSASVGDRVTITCRASQGISSYLAWYQQKPGKAPKLLIYAASTLQSGVPSRFSGSGSGTEFTLTISSLQPEDFATYYCQQLNYYSITFGQGTRLEIK", "Discrete label": "MET"}
{"Binder": "9A1 (9A1H6) (antibody, V domains shown, IgG in hybridoma supernatant) VH: QVQLVQSGAEVKKPGASVKVSCKASGYSFTGYYMHWVRQAPGQGLEWMGWINPKSGGTSYAQQFQGRVTMTRDTSMSTVYMELTRLRADDTAVYYCARLYYSGWYGDYWGQGTLVTVSS VL: DIQMTQSPSSLSASVGDRVTITCQASQDINNYLNWYQQKPGKVPNLLIYDASNLETGVPSRFSGSGSGTDFTFTISSLQPEDIATYYCQQYNNPPITFGQGTRLEIK", "Discrete label": "NOT MET"}

Q: hey, is kon for this one >= 100000 M⁻¹ s⁻¹? 9A11 (9A11E8) (antibody, V domains shown, IgG in hybridoma supernatant) VH: QVQLVESGGGVVQPGRSLRLSCAASGFTFSNYGMYWVRQAPGKGLEWVAVIWYDGSKKYYGDSVKGRFTISRDNSKNTLYLQMNSLRAEDTAVYYCARDEDTVMASFDYWGQGTLVTVSS VL: DIQLTQSPSFLSASVGDRVTITCRASQDISIYLAWYQQKPGKAPQLLIYAASTLQSGVPSRFSGSGSGTEFTLTISSLQPEDFATYSCQQLNSYPITFGGGTKVEIK
Result: MET

Data origin, for the record: patent US20240252641A1
